Values were extracted from patent EP0888340B1.

Kindly supply the reported inhibition at 1 µM values for the records listed here.
Measurement Target: ETB Receptor (Sus scrofa)
Construct: Porcine cerebellum was homogenized in 25 volumes (w/v) of 10 mM Hepes (pH 7.4); from tissue; host or cells: porcine cerebellum membranes
Sequence (P35463 27-443): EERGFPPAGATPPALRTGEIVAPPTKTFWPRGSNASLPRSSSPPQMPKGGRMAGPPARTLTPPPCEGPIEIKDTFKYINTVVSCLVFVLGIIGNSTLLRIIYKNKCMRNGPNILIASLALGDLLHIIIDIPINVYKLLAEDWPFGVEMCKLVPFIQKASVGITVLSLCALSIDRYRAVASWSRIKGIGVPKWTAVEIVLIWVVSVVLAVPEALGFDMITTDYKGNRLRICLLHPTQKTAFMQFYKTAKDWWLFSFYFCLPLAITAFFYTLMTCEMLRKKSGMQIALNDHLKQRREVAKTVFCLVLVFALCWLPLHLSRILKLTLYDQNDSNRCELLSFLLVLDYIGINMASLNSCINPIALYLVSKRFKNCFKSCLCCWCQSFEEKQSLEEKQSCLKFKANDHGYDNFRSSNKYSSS
Run Description: ETB receptor binding assay: [125I]ET-3 binding to membranes
Settings: test compound 1 µM; displacement of 0.1 nM [125I]ET-3; Porcine cerebellum membranes; 4 hours at 25 °C
Structures can show the parent of a compound that is named as a salt.
Answers are plain numbers, in %.

• COc1ccc([C@H]2[C@H](C(=O)O)[C@@H](c3ccc4c(c3)OCO4)CN2CC(=O)Nc2c(C)cccc2C)cc1 (racemic) [Example 11] = 96
• CCc1cccc(C)c1NC(=O)CN1C[C@H](c2ccc3c(c2)OCO3)[C@@H](C(=O)O)[C@@H]1c1ccc(OC)cc1 [Example 18] = 94.9
• COc1ccc([C@H]2[C@H](C(=O)O)[C@@H](c3ccc4c(c3)OCO4)CN2CC(=O)Nc2c(C)cc(C)cc2C)cc1 (racemic) [Example 1] = 96.4
• CCOc1ccc([C@H]2[C@H](C(=O)O)[C@@H](c3ccc4c(c3)OCO4)CN2CC(=O)Nc2c(CC)cccc2CC)cc1 (racemic) [Example 10] = 95.2
• CCCOc1ccc([C@H]2[C@H](C(=O)O)[C@@H](c3ccc4c(c3)OCO4)CN2CC(=O)Nc2c(CC)cccc2CC)cc1OC (racemic) [Example 9] = 94.8

Can you give me inhibition at 1 µM for all of these, one by one?
1. COc1ccc([C@H]2[C@H](C(=O)O)[C@@H](c3ccc4c(c3)OCO4)CN2CC(=O)Nc2c(Br)cccc2Br)cc1 [Example 14]
2. CCCOc1ccc([C@H]2[C@H](C(=O)O)[C@@H](c3cc(OC)c4c(c3)OCO4)CN2CC(=O)Nc2c(CC)cccc2CC)cc1 (racemic) [Example 12]
3. CCc1cccc(CC)c1NC(=O)CN1C[C@H](c2ccc3c(c2)OCO3)[C@@H](C(=O)O)[C@@H]1c1ccc(OC)cc1 [Example 15, hydrochloride salt]
4. CCc1cc(CC)c(NC(=O)CN2C[C@H](c3ccc4c(c3)OCO4)[C@@H](C(=O)O)[C@@H]2c2ccc(OC)cc2)c(CC)c1 [Example 19]
5. COc1ccc([C@H]2[C@H](C(=O)O)[C@@H](c3ccc4c(c3)OCO4)CN2CC(=O)Nc2c(OC)cccc2OC)cc1 [Example 16]

## Output
96.6
96.7
93.4
94.9
92.3

Below is a list of molecules. For each, state its recorded inhibition at 1 µM.
1. CCc1cccc(CC)c1NC(=O)CN1C[C@H](c2ccc3c(c2)OCO3)[C@@H](C(=O)O)[C@@H]1c1ccc(OC)c(F)c1 (racemic) [Example 6]
2. CCc1cccc(OC)c1NC(=O)CN1C[C@H](c2ccc3c(c2)OCO3)[C@@H](C(=O)O)[C@@H]1c1ccc(OC)cc1 [Example 27]

## Output
1: 92.9; 2: 98.8

The following molecules each have a reported value; give each one's inhibition at 1 µM.
1. CCCOc1ccc(C2C(C(=O)O)C(c3ccc4c(c3)OCO4)CN2CC(=O)Nc2c(CC)cccc2CC)cc1 (stereo not drawn) [Example 20]
2. CCc1cc([N+](=O)[O-])cc(CC)c1NC(=O)CN1C[C@H](c2ccc3c(c2)OCO3)[C@@H](C(=O)O)[C@@H]1c1ccc(OC)cc1 [Example 25]
3. COc1ccc([C@H]2[C@H](C(=O)O)[C@@H](c3ccc4c(c3)OCO4)CN2CC(=O)Nc2c(C)cc(C)cc2C)cc1F (racemic) [Example 2]
4. CCc1cc(Br)cc(CC)c1NC(=O)CN1C[C@H](c2ccc3c(c2)OCO3)[C@@H](C(=O)O)[C@@H]1c1ccc(OC)cc1 [Example 17]
5. CCc1cccc(CC)c1NC(=O)CN1C[C@H](c2cc(OC)c3c(c2)OCO3)[C@@H](C(=O)O)[C@@H]1c1ccc(OC)c(F)c1 (racemic) [Example 8]
6. CCCOc1ccc([C@H]2[C@H](C(=O)O)[C@@H](c3cc(OC)c4c(c3)OCO4)CN2CC(=O)Nc2c(CC)cccc2CC)cc1OC [Example 13]
7. CCc1cc(C(=O)O)cc(CC)c1NC(=O)CN1C[C@H](c2ccc3c(c2)OCO3)[C@@H](C(=O)O)[C@@H]1c1ccc(OC)cc1 [Example 24]
8. COc1ccc([C@H]2[C@H](C(=O)O)[C@@H](c3ccc4c(c3)OCO4)CN2CC(=O)Nc2c(C)cccc2C(C)C)cc1 [Example 26]

## Output
1. 95.5
2. 95.7
3. 91.5
4. 97.1
5. 93.6
6. 91.3
7. 93.3
8. 98

## Input # lookup: inhibition at 1 µM of COc1ccc([C@H]2[C@H](C(=O)O)[C@@H](c3ccc4c(c3)OCO4)CN2CC(=O)Nc2c(C(C)C)cccc2C(C)C)cc1 [Example 21]
## Output 97.1
